# assay_name: Toxicity liver stage against HepG2, at 10uM
# Type: cell-based
# Parameters: test concentration 10 uM, cell line HepG2-A16-CD81EGFP
# experimental_parameters: human, HepG2-A16-CD81EGFP cells; read-out: INHIBITION
Examples of compounds with documented cytotoxicity at 10 µM follow.
experimental_endpoint: cytotoxicity at 10 µM (%)

1) Cc1nc(C2CCCN2C(=O)c2ccccc2)ncc1C(N)=O (stereo unspecified)
-1.47
2) CN(C)S(=O)(=O)N1CCC(Oc2cnccn2)CC1
1.65
3) COCCN1CCC(NC(=O)Cn2cc(C)c3ccccc32)CC1
-0.869
4) Cc1csc(CNC(=O)N2CCN(Cc3ccco3)CC2)n1
0.702
5) Cc1nn(C)cc1CN1CCCCCC1c1ccc(Cl)cc1 (stereo unspecified)
4.93
6) COc1cccc([C@H]2CN(C(=O)c3ccccc3)[C@@H]3CCCN[C@H]23)c1
-25.9

###

Examples of compounds with documented cytotoxicity at 10 µM follow.
# assay_name: Toxicity liver stage against HepG2, at 10uM
# Assay type: cell-based
# Parameters: test concentration 10 uM, cell line HepG2-A16-CD81EGFP
# experimental_parameters: human, HepG2-A16-CD81EGFP cells; read-out: INHIBITION
experimental_endpoint: cytotoxicity at 10 µM (%)

1) CN1CC(=O)N(c2ccsc2)CC12CCN(C(=O)Nc1ccccc1)C2 (stereo not given)
-78.7
2) CCN1CCN(C(=O)c2cc(F)cc3nc(C)c(C)nc23)CC1
-2.25
3) Cn1nc(C2CCCN2)c2c(C(=O)NC3CC3)cc(C3CC3)nc21 (stereo not given)
15.3
4) O=C(NCc1ccc2[nH]c(=O)[nH]c2c1)c1ccc(CN2CCCC2)o1
-0.987
5) CCCS(=O)(=O)N1C[C@@H]2C[C@H](C(=O)N3CCOCC3)[C@H](C1)O2
-1.95

###

Examples of compounds with documented cytotoxicity at 10 µM follow.
# assay_name: Toxicity liver stage against HepG2, at 10uM
# Format: cell-based
# Parameters: test concentration 10 uM, cell line HepG2-A16-CD81EGFP
# experimental_parameters: human, HepG2-A16-CD81EGFP cells; read-out: INHIBITION
experimental_endpoint: cytotoxicity at 10 µM (%)

1) COc1ccc(S(=O)(=O)NCC(c2cccn2C)N(C)C)c(C)c1 (configuration not stated)
7.78
2) Cc1nc(CN2CCN(C(=O)C(c3ccccc3C)N(C)C)CC2)no1 (configuration not stated)
1.06
3) COc1ccc(-c2cccc(-c3ccn(CC4COCCO4)n3)c2)nn1 (configuration not stated)
-7.78
4) CCc1noc(C(C)N2CCN(C(=O)CN3CCOCC3)CC2)n1 (configuration not stated)
-9.17
5) c1cncc(NCCCNC2CCSC2)c1 (configuration not stated)
-3.62
6) COC(=O)NC1(C(=O)Nc2ccc(-c3cc[nH]n3)cc2)CCCC1
-11.2
7) CN(C)C[C@]12COC[C@H]1CN(Cc1ccc3c(c1)OCO3)C2
-123
8) CCS(=O)(=O)N1CCOC2(CCCN(c3cnccn3)C2)C1 (configuration not stated)
2.66
9) Cc1c(CN2C[C@@H](O)[C@H](Oc3cccc(F)c3)C2)cnn1C
-8.21
10) COCc1nc(CNC2CCC3(CCNCC3)CC2)no1
-3.13
11) CCOC(=O)CNC(=O)N1CCN(c2ncccn2)CC1
10.6
12) CO[C@@H]1CCN(S(=O)(=O)c2cn(C)cn2)[C@H]1Cc1ccccc1
7.13
13) Cc1nc(Nc2ncc(C)s2)cc(C2CCCN2)n1 (configuration not stated)
82
14) CC(C(=O)NCCOc1cccc(Cl)c1)n1cncn1 (configuration not stated)
-3.53
15) CCOc1ccc(CC(CNC(=O)c2ccoc2)C(N)=O)cc1 (configuration not stated)
5.37
16) CC(=O)N1CCc2nc(C3CCN(c4ncccn4)C3)ncc2C1 (configuration not stated)
-30
17) CN(C)C(=O)c1noc2c1CN(C(=O)CCCN1CCCCC1)CC2
-10.5
18) CCN(CCN(C)C)c1nc(CCN)nc2sc(C)c(C)c12
-1.78
19) c1cncc(-c2noc(CN3CCCC(Cn4cncn4)C3)n2)c1 (configuration not stated)
-2.18
20) CN1C[C@H]2CNC[C@@]2(C(=O)NC2CCN(c3ncccc3C#N)CC2)C1
-0.766
21) C[C@@H]1CCC[C@H](C)N1CC(=O)N1CCc2[nH]c(-c3ccccc3)nc2C1
4.02
22) CNC(=O)CCS(=O)(=O)Cc1cc(Cl)c2c(c1)OCCCO2
-6.31
23) O=C1CCC2(CCCN(Cc3nnc(C4CC4)o3)C2)CN1CCO (configuration not stated)
5.14
24) COC(=O)N1CCCN(C(=O)NC2CCc3ccccc3C2)CC1 (configuration not stated)
-1.14
25) COc1ccc2c(ccn2CCN)c1
-0.73
26) COc1cccc(CCNCc2c(C)nn(C)c2N(C)C)c1
-1.6
27) CCN(CC)S(=O)(=O)N(C)Cc1ccc2c(c1)OCCO2
-7.85
28) Cn1cc(NC(=O)N2CCC2c2ccccc2)ccc1=O (configuration not stated)
-9.57
29) O=C(CCCN1CCCCC1)NC(C(=O)O)c1ccc(Cl)cc1 (configuration not stated)
-2.33
30) O=C(NCCc1csc(-c2ncccn2)n1)c1cnn2c1CCCC2
-3.88
31) Cc1cc(N[C@H]2CCCN(Cc3ccccc3)C2)n2nc(C)cc2n1
1.53
32) CCSc1ccc(C(=O)N2CCCCC2C(=O)N2CCCC2)cn1 (configuration not stated)
10.5
33) O=C(CC(F)(F)F)N1CCc2[nH]nc(-c3ccc4c(c3)OCO4)c2C1
-149
34) Cc1nn(C)c(Cl)c1C1CCCN1CC(=O)N1CCCCC1 (configuration not stated)
0.347
35) Cc1cc(CN2C[C@@H](N3CCN(C)CC3)[C@H]3OCCC[C@H]32)oc1C
-132
36) Cc1ccc(N2CCC3(CCN(C(=O)c4ccsc4)CC3)C2)nn1
4
37) Cc1nc[nH]c1CN(C)CC1CCCN(CCc2ccc(Cl)cc2)C1 (configuration not stated)
-15.5
38) Cc1sc(-c2ccco2)nc1C(=O)N(CC1CCOC1)C1CC1 (configuration not stated)
0.714
39) c1ccc(Cc2nc(CNC3CCOC4(CCOCC4)C3)no2)cc1 (configuration not stated)
-10.6
40) CCCn1ncc(C(=O)N(C)Cc2cc(C3CC3)[nH]n2)c1C
-4.65
41) CN(Cc1cc(C2CC2)[nH]n1)C(=O)c1cnn2ccn(C)c12
-3.67
42) Cc1cnn(CC2CCCN2CC(=O)N(C)Cc2ccco2)c1 (configuration not stated)
10.8
43) N#Cc1ccc(N2CCCN(C(=O)CC3CCCO3)CC2)cc1 (configuration not stated)
-4.69
44) O=C(NCc1cccc(N2CCCCC2=O)c1)[C@@H](O)c1ccccc1
-8.31
45) Cc1ccc(C(=O)N(Cc2cccnc2)C[C@@H]2CCC(=O)N2)s1
-77.9
46) O=C(Cc1ccc(O)c(Cl)c1)N1CCCCC1CCn1cccn1 (configuration not stated)
-13.6
47) CC(C)(NC(=O)C1CCN(C2CCCCC2)CC1)c1nnc(N)s1
6.17

###

# assay_name: Toxicity liver stage against HepG2, at 10uM
# Assay type: cell-based
# Design: test concentration 10 uM, cell line HepG2-A16-CD81EGFP
# experimental_parameters: human, HepG2-A16-CD81EGFP cells; read-out: INHIBITION
experimental_endpoint: cytotoxicity at 10 µM (%)

1. Cn1cc(-c2nc(CN3CCc4c(ncn4C)C3)cs2)cn1
-6.54
2. CC(C)C(C(=O)NC1CCOCC1)n1cnc2cc(F)c(F)cc21 (stereo unspecified)
-2.75
3. COc1cc(CN(C)C(=O)NCc2ccccn2)ccc1SC
-8.42
4. Oc1ccccc1CN1CCC(n2cc(-c3ccc(F)cc3)nn2)CC1
-2.68
5. Cc1cc(C)n(CC2CCCCN2C(=O)CCc2ccncc2)n1 (stereo unspecified)
2.1
6. Cc1ccc(C(=O)NS(=O)(=O)c2ccccc2Br)c(=O)[nH]1
-0.704
7. Cc1noc(C)c1C(=O)N1Cc2ncn(C)c2C(COCC2CC2)C1 (stereo unspecified)
-111
8. COc1ccc(NC(=O)CSc2nc(C)c(C)c(C)c2C#N)cn1
-0.82
9. N#Cc1cccc(C(=O)N2CCC(Nc3cccnn3)CC2)c1
-5.17
10. Cc1noc(C)c1C[S+]([O-])Cc1cn2cccc(C)c2n1 (stereo unspecified)
2.14
11. c1ccc(Cc2nnc(CN3CCOC(Cn4cccn4)C3)o2)cc1 (stereo unspecified)
-8.48

###

# assay_name: Toxicity liver stage against HepG2, at 10uM
# Type: cell-based
# Design: test concentration 10 uM, cell line HepG2-A16-CD81EGFP
# experimental_parameters: human, HepG2-A16-CD81EGFP cells; read-out: INHIBITION
Examples of molecules with documented cytotoxicity at 10 µM follow.
experimental_endpoint: cytotoxicity at 10 µM

1. COc1c(CNCc2ccc(CN(C)C)cc2)c(C)nn1C
3.87%
2. COc1ncccc1-c1nc(-c2ccccn2)nn1C1CCS(=O)(=O)C1 (stereo not drawn)
-6.1%
3. CCN1C(=O)[C@H]2CN(CC(C)C)C[C@H]2C12CCN(C(=O)NC(C)C)CC2
4.89%
4. c1cc2cc[nH]c2c(CC2CN(Cc3cscn3)C2)n1
13.8%
5. CC(C)c1nc(CNC2CCN(S(C)(=O)=O)CC2)cs1
-1.53%
6. Cc1nc(C)n(CC2CCCN(Cc3cccnc3)C2)n1 (stereo not drawn)
-18.7%
7. OCCC1CN(c2nc(-c3ccncc3)nc3c2CCNCC3)CCO1 (stereo not drawn)
5.05%
8. CC(Nc1ccc(CCN2CCOCC2)cc1)C(=O)N(C)CCC#N (stereo not drawn)
-8.93%
9. CC(=O)N1CCCN(CCCSc2ccccc2Cl)CC1
0.269%
10. Cc1cnc(CN(C)C2CCN(CCn3cc(C#N)cn3)C2)o1 (stereo not drawn)
-5.45%
11. CN1CCN(Cc2nnc(C3CCN(CC4CC4)CC3)n2C)CC1
-13.6%
12. CCN1CCCC(O)(c2nc(C)c(CCOc3ccc(F)cc3)s2)CC1 (stereo not drawn)
-22.4%
13. CCOC(=O)C1CCN(Cc2csc(-c3ccc(C)o3)n2)CC1
-11.4%
14. COCC1CCCN(CCCc2cccc(OC)c2)C1 (stereo not drawn)
2.41%
15. Cc1c(-c2c(-c3ccccc3)ncn2[C@@H](C(=O)O)[C@H](C)O)cnn1C
-7.67%
16. c1cnc2[nH]c(C3CCCC3)c(CN3CCOCC3)c2c1
-1.06%
17. COc1ccc(OCC(=O)NC(C)c2ccccc2)c(C(=O)O)c1 (stereo not drawn)
2.4%
18. Cn1cnc(S(=O)(=O)N2C[C@H]3CN(Cc4cccnc4)C[C@H]3C2)c1
8.46%
19. Cn1ncc(N2CCN(Cc3ccc(S(C)(=O)=O)cc3)CC2)cc1=O
-1.44%
20. Cc1nc2c(c(=O)[nH]1)CCN(Cc1ccc3c(c1)CCCN3C)C2
-1.87%
21. CN(C)C(=O)N1CCC2(CC1)COCCN(c1ncccn1)C2
8.42%
22. Cc1nn(C)cc1-c1cc(C(F)(F)F)c2c(C)nn(CC(=O)O)c2n1
-4.79%
23. Cc1cccc(CN2C(=O)C[C@H]3[C@@H]2CCN3Cc2ccco2)n1
-1.39%
